experiment: Competitive inhibition of rat brain VGLUT assessed as inhibition of [3H]glutamate uptake into vesicles after 10 mins by scintillation spectrophotometry
measure name: IC50 (nM)
API: value field is a number in nM; no unit string.

Form field IC50, entry Cc1cc(-c2ccc(/N=N/c3c(S(=O)(=O)O)cc4cc(S(=O)(=O)O)cc(N)c4c3O)c(C)c2)ccc1/N=N/c1c(S(=O)(=O)O)cc2cc(S(=O)(=O)O)cc(N)c2c1O [TRYPAN BLUE] : 100

----------
target: Synaptic vesicular amine transporter VMAT2 (Rattus norvegicus); experiment: Inhibition of rat vesicular monoamine transporter 2 assessed as inhibition of dopamine uptake at 200 uM
The source made the active and inactive calls. The calls are words filed in the database; no cut-off is given here.
measure name: inhibition

Assay Synaptic vesicular amine transporter VMAT2 (Rattus norvegicus), sample Cc1cc(C(=O)O)ccc1N/N=C1\C(=O)c2c(N)cc(S(=O)(=O)O)cc2C=C1S(=O)(=O)O , inhibition read: inactive

Assay Synaptic vesicular amine transporter VMAT2 (Rattus norvegicus), sample Nc1cc(S(=O)(=O)O)cc2c1C(=O)/C(=N\Nc1ccc(C(=O)O)cc1)C(S(=O)(=O)O)=C2 , inhibition read: inactive

Assay Synaptic vesicular amine transporter VMAT2 (Rattus norvegicus), sample Cc1cc(C(=O)O)cc(C)c1N/N=C1\C(=O)c2c(N)cc(S(=O)(=O)O)cc2C=C1S(=O)(=O)O , inhibition read: inactive

Assay Synaptic vesicular amine transporter VMAT2 (Rattus norvegicus), sample Nc1cc(S(=O)(=O)O)cc2c1C(=O)/C(=N\Nc1c(O)c(F)c(C(=O)O)c(F)c1F)C(S(=O)(=O)O)=C2 , inhibition read: inactive

----------
species on record: Rattus norvegicus; experiment: Inhibition of rat brain VGLUT assessed as inhibition of [3H]glutamate uptake into vesicles at 20 uM after 10 mins by scintillation spectrophotometry
measure name: inhibition

Form field inhibition, entry COc1cc(Br)ccc1N/N=C1\C(=O)c2c(N)cc(S(=O)(=O)O)cc2C=C1S(=O)(=O)O : 42%

Form field inhibition, entry Nc1cc(S(=O)(=O)O)cc2c1C(=O)/C(=N\Nc1ccc(C(=O)O)cc1C(F)(F)F)C(S(=O)(=O)O)=C2 : 76%

Form field inhibition, entry Nc1cc(S(=O)(=O)O)cc2c1C(=O)/C(=N\Nc1c(O)c(F)c(C(=O)O)c(F)c1F)C(S(=O)(=O)O)=C2 : 18%

Form field inhibition, entry Nc1cc(S(=O)(=O)O)cc2c1C(=O)/C(=N\Nc1ccc(C(=O)O)cc1F)C(S(=O)(=O)O)=C2 : 18%

Form field inhibition, entry Nc1ccc(-c2ccc(N/N=C3\C(=O)c4c(N)cc(S(=O)(=O)O)cc4C=C3S(=O)(=O)O)c(F)c2)cc1F : 74%

Form field inhibition, entry Cc1cc(Br)cc(C)c1N/N=C1\C(=O)c2c(N)cc(S(=O)(=O)O)cc2C=C1S(=O)(=O)O : 77%

Form field inhibition, entry Nc1cc(S(=O)(=O)O)cc2c1C(=O)/C(=N\Nc1ccc(I)cc1F)C(S(=O)(=O)O)=C2 : 46%

----------
species: Rattus norvegicus; assay: Inhibition of rat brain VGLUT assessed as inhibition of [3H]glutamate uptake into vesicles at 20 uM after 10 mins by scintillation spectrophotometry
Activity calls are given as the source filed them. No cut-off for these calls is given here.
measure name: inhibition

Form field inhibition, entry Nc1cc(S(=O)(=O)O)cc2c1C(=O)/C(=N\Nc1ccc(Br)cc1)C(S(=O)(=O)O)=C2 : 33%

Form field inhibition, entry Nc1cc(S(=O)(=O)O)cc2c1C(=O)/C(=N\Nc1c(O)c(F)c(Br)c(F)c1F)C(S(=O)(=O)O)=C2 : 39%

Form field inhibition, entry O=C1/C(=N\Nc2ccc(I)cc2Cl)C(S(=O)(=O)O)=Cc2cc(S(=O)(=O)O)ccc21 : inactive

Form field inhibition, entry Nc1cc(S(=O)(=O)O)cc2c1C(=O)/C(=N\Nc1c(F)c(F)c(-c3c(F)c(F)c(N)c(F)c3F)c(F)c1F)C(S(=O)(=O)O)=C2 : 96%

Form field inhibition, entry N=c1ccc2c(=O)/c(=N\Nc3ccc(I)cc3Cl)c(S(=O)(=O)O)cc=2/c1=N/Nc1ccc(I)cc1Cl : inactive

Form field inhibition, entry Nc1cc(S(=O)(=O)O)cc2c1C(=O)/C(=N\Nc1ccc(C(=O)O)cc1)C(S(=O)(=O)O)=C2 : 15%

---
Form field inhibition, entry Nc1ccc(-c2ccc(N/N=C3\C(=O)c4c(N)cc(S(=O)(=O)O)cc4C=C3S(=O)(=O)O)c(C(F)(F)F)c2)cc1C(F)(F)F : 98%

Form field inhibition, entry COc1cc(C(=O)O)ccc1N/N=C1\C(=O)c2c(N)cc(S(=O)(=O)O)cc2C=C1S(=O)(=O)O : 25%

Form field inhibition, entry O=C1C(S(=O)(=O)O)=Cc2cc(S(=O)(=O)O)ccc2/C1=N/Nc1ccc(I)cc1Cl : inactive

Form field inhibition, entry Cc1cc(C(=O)O)cc(C)c1N/N=C1\C(=O)c2c(N)cc(S(=O)(=O)O)cc2C=C1S(=O)(=O)O : 5%

Form field inhibition, entry Nc1cc(S(=O)(=O)O)cc2c1C(=O)/C(=N\Nc1ccc(C(=O)O)cc1Cl)C(S(=O)(=O)O)=C2 : 55%

Form field inhibition, entry Cc1cc(I)ccc1N/N=C1\C(=O)c2c(N)cc(S(=O)(=O)O)cc2C=C1S(=O)(=O)O : 83%

Form field inhibition, entry Nc1ccc(-c2ccc(N/N=C3\C(=O)c4c(N)cc(S(=O)(=O)O)cc4C=C3S(=O)(=O)O)c(Cl)c2)cc1Cl : 88%

Form field inhibition, entry Nc1cc(S(=O)(=O)O)cc2c1C(=O)/C(=N\Nc1ccc(I)cc1Cl)C(S(=O)(=O)O)=C2 : 45%

Form field inhibition, entry Nc1cc(S(=O)(=O)O)cc2c1C(=O)/C(=N\Nc1ccc(I)cc1C(F)(F)F)C(S(=O)(=O)O)=C2 : 83%

Form field inhibition, entry Cc1cc(-c2ccc(N/N=C3\C(=O)c4c(N)cc(S(=O)(=O)O)cc4C=C3S(=O)(=O)O)c(C)c2)ccc1N : 52%

Form field inhibition, entry Nc1ccc(-c2ccc(N/N=C3\C(=O)c4c(N)cc(S(=O)(=O)O)cc4C=C3S(=O)(=O)O)cc2)cc1 : 25%

Form field inhibition, entry Cc1cc(C(=O)O)ccc1N/N=C1\C(=O)c2c(N)cc(S(=O)(=O)O)cc2C=C1S(=O)(=O)O : 15%
